- Test system: Bacillus sp. (Gram+)
- protocolSummary: Antimicrobial activity, MIC on Müeller Hinton Agar
- Format: cell-based, Bacillus subtilis
- conditionSet: MHA plates, 37 °C, 24 h
- Procedure: The antimicrobial activity of studied compounds was tested against Escherichia coli, Bacillus subtilis, Staphylococcus epidermidis, Streptococcus pyogenes and antifungal activities against Candida sp. The microorganisms used in the experiment were obtained from the American Type Culture Collection-ATCC. Antimicrobial activity was measured as a minimal inhibitory concentration (MIC) with […] Hinton Agar (MHA). […]
quantity: MIC (minimal inhibitory concentration)

compound: O=C(/C=C/c1ccc(O)c(O)c1)O[C@@H]1C[C@](O)(C(=O)[O-])C[C@@H](O)[C@H]1O.[K+] [K 5-CQA, potassium chlorogenate]
result: 5.96 mM

compound: O=C(/C=C/c1ccc(O)c(O)c1)O[C@@H]1C[C@](O)(C(=O)[O-])C[C@@H](O)[C@H]1O.[Rb+] [Rb 5-CQA, rubidium chlorogenate]
result: 5.27 mM

compound: NC[C@H]1O[C@H](O[C@H]2[C@H](O)[C@@H](O[C@H]3O[C@H](CO)[C@@H](O)[C@H](N)[C@H]3O)[C@H](N)C[C@@H]2N)[C@H](O)[C@@H](O)[C@@H]1O [Kanamycin, reference compound]
result: 0.21 mM

###

Each item that follows carries a reported MIC (minimal inhibitory concentration).
- System: Streptococcus Pyogenes (Gram+)
- protocolSummary: Antimicrobial activity, MIC on Müeller Hinton Agar
- Type: cell-based
- conditionSet: MHA plates, 37 °C, 24 h

compound: NC[C@H]1O[C@H](O[C@H]2[C@H](O)[C@@H](O[C@H]3O[C@H](CO)[C@@H](O)[C@H](N)[C@H]3O)[C@H](N)C[C@@H]2N)[C@H](O)[C@@H](O)[C@@H]1O [Kanamycin, reference compound]
MIC (minimal inhibitory concentration): 210 µM
//
compound: O=C(/C=C/c1ccc(O)c(O)c1)O[C@@H]1C[C@](O)(C(=O)[O-])C[C@@H](O)[C@H]1O.[Rb+] [Rb 5-CQA, rubidium chlorogenate]
MIC (minimal inhibitory concentration): 2630 µM
